The reported numbers originate from paper PMC9228412.

Listed here: items and their measured remaining activity at 10 µM.
# measurement_target: PRMT1 (Homo sapiens)
# Sequence (Q99873 whole entry, species assumed): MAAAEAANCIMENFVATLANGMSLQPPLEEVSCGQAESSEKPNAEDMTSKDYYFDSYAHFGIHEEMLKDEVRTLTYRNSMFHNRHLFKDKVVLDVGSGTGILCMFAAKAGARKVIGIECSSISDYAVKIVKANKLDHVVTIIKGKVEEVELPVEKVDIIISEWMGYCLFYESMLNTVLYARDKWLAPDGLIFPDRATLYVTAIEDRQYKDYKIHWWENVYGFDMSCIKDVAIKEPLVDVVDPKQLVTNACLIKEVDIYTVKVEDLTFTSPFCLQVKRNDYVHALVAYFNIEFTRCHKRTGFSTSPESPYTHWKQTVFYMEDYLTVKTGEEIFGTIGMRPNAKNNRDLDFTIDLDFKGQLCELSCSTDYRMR
# method_notes: scintillation proximity assay (SPA) of PRMT1 methyltransferase activity
# Format: biochemical
# measurement_parameters: 0.5 h; remaining activity of the enzyme; single point SPA test, inhibitor 10 μM; read-out: Relative Activity of PRMT1 at 10 μM
Give a bare numeral; the unit % is implied.

Worked examples, 3 molecules total:
{"molecule": "Nc1ncnc2c1ncn2[C@@H]1O[C@H](Cn2cc(-c3ccccc3)nn2)[C@@H](O)[C@H]1O [Compound 14]", "number": 90.1}
{"molecule": "COC(=O)c1ccc(CNCc2cn(C[C@H]3O[C@@H](n4cnc5c(N)ncnc54)[C@H](O)[C@@H]3O)nn2)cc1 [Compound 22]", "number": 94.2}
{"molecule": "[N-]=[N+]=NC[C@H]1O[C@@H](n2cnc3c(N)ncnc32)[C@H](O)[C@@H]1O [Compound 1, 5′-azido-5′-deoxyadenosine]", "number": 97.5}

Ask: Entry Nc1ncnc2c1ncn2[C@@H]1O[C@H](Cn2cc(CCCC(=O)O)nn2)[C@@H](O)[C@H]1O [Compound 12] has what remaining activity at 10 µM?
Reply: 99.3
